- TGT: PCAF719-832 bromodomain (Homo sapiens (Human), UniProt Q92831)
- Sequence (Q92831 719-832): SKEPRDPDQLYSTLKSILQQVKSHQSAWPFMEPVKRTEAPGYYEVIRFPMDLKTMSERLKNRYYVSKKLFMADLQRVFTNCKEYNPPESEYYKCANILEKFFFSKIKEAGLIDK
- TEST_DETAILS: PCAF AlphaLisa binding assay
- APPLIED_CONDITIONS: PCAF bromodomain 225 nM, biotinylated small molecule ligand 6 nM
READOUT_KIND: pIC50
Hey, just a heads up that pIC50 is the negative log base 10 of the concentration in molar.

Answered examples (3):
>  <MOLECULE>
CC[C@H](CNc1nn(C)c(=O)c2ccccc12)N(C)C (single isomer, unassigned) [Example 39B]

>  <pIC50>
7.05

$$$$
>  <MOLECULE>
COc1ccc(C(CNc2nn(C)c(=O)c3ccccc23)N(C)C)cc1 (racemic) [Example 21]

>  <pIC50>
7.19

$$$$
>  <MOLECULE>
C[C@H](Nc1nn(C)c(=O)c2cccnc12)[C@H](c1ccc(C(=O)N(C)Cc2ccccc2)cc1)N(C)C (single isomer, unassigned) [Example 84]

>  <pIC50>
7.25

$$$$

Could you share which pIC50 value was measured for C[C@H](Nc1nn(C)c(=O)c2ccccc12)[C@H](c1ccc(=O)[nH]c1)N(C)C [Example 88] ? 7.10

Given the entry CN(C)C(CNc1nn(C)c(=O)c2ccccc12)C1CCCCC1 (racemic) [Example 38] , report its measured pIC50. 6.15

Can you share its pIC50? I mean this molecule: CN(C)[C@H](CNc1nn(C)c(=O)c2ccccc12)c1ccccc1 (single isomer, unassigned) [Example 22A] 7.33
